Values compiled from paper PMC10537618.

- TARGET_SYSTEM: recombinant CYP2B6 (Homo sapiens)
- Construct: purchased Thermo Fisher Scientific; host or cells: insect cells (microsomes)
- Sequence (P20813 whole entry): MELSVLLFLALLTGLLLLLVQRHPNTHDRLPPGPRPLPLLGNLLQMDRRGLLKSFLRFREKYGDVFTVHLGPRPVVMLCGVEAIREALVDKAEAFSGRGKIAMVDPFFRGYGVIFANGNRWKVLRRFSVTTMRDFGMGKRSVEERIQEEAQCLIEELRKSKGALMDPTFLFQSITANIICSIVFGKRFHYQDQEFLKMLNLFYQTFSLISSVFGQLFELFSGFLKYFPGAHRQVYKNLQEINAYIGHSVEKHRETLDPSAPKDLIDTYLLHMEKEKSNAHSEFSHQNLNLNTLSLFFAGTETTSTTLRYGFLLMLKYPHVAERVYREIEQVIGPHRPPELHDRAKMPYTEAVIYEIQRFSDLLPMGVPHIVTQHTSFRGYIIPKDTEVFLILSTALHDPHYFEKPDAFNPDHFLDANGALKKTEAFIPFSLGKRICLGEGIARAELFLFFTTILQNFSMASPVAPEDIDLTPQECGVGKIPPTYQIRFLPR
- PROCEDURE_TEXT: Vivid fluorescence-based CYP inhibition assay, recombinant CYP2B6 (BOMCC substrate)
- Type: in vitro ADME
- TEST_PARAMETERS: fluorescence-based, BOMCC substrate, betanin 0.1–100 μM
ASSAY_ENDPOINT: IC50

INPUT: I have this compound here, O=C(O)C1=C/C(=C/C=[N+]2/c3cc(O)c(OC4OC(CO)[C@@H](O)C(O)C4O)cc3CC2C(=O)[O-])CC(C(=O)O)N1 (stereo in doubt) , and I need its recorded IC50.
OUTPUT: > 100 µM
